From: paper PMC4336329

ASSAY TARGET: human ether-à-go-go-related gene (hERG) potassium channel (human, UniProt Q12809)
Sequence (Q12809 whole entry, looked up): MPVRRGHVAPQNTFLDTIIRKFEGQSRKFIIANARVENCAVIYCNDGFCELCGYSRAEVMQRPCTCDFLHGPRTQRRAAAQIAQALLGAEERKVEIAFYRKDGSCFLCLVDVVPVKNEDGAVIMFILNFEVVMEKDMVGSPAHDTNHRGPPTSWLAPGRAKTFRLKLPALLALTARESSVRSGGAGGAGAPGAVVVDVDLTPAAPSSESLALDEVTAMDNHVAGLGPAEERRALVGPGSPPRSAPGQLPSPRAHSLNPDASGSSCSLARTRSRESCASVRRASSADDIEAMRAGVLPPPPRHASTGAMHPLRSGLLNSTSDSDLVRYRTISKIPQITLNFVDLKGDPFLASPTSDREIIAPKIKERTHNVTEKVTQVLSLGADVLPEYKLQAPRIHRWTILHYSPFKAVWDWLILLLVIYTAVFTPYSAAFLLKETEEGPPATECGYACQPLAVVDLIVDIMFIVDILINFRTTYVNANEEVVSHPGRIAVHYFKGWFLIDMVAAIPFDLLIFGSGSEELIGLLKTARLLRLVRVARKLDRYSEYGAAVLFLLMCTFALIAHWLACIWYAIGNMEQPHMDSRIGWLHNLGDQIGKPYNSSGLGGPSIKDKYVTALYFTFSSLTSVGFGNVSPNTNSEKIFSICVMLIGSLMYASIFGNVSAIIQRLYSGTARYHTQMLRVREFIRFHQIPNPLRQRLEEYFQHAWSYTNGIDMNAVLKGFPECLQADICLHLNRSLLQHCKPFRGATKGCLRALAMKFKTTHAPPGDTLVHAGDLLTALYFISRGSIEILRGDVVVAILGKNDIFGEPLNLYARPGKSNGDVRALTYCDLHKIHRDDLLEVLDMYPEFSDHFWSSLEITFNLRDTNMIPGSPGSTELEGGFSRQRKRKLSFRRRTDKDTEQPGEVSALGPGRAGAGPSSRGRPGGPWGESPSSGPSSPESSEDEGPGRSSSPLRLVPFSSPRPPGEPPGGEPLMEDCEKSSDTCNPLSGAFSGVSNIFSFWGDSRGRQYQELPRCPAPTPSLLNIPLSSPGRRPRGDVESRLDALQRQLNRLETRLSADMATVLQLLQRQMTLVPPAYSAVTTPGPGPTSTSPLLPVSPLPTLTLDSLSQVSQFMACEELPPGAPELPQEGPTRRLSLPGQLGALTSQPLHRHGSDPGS
ASSAY NAME: primary screen, population patch clamp on CHO cells stably expressing hERG; higher = less effect of the substance
Description: Briefly, Chinese hamster ovary (CHO) cells stably expressing the hERG channel were dislodged from tissue culture flasks and dispensed into PPC plates. […] Small molecule effects on hERG current density were quantified by […].
The campaign covered roughly 310,000 compounds. About 2,200 (0.71%) showed an effect of 50% or more. The effect is printed as a negative number. Only a selection was taken, and strong results are over-represented in it overall.
QUANTITY MEASURED: hERG current change (%, negative = inhibition) at 1uM (%)
Unit % implied. Number only.

Some entries whose results are on file:
> print(dat)
                                   molecule                              assay.target  units.label  test.value
1  COc1cc(CN2CCC(CO)(CCOc3ccccc3)CC2)cc(OC)c1OC  human ether-à-go-go-related gene (hERG) potassium channel (human, UniProt Q12809)            %        3.71
2  CC(=O)NS(=O)(=O)c1ccc(NC(=O)CC(C)c2ccccc2)cc1 (centres unmarked)  human ether-à-go-go-related gene (hERG) potassium channel (human, UniProt Q12809)            %        2.97
3  O=C(N/N=C/c1ccc2c(c1)OCO2)c1ccc(COCC(F)(F)C(F)F)cc1  human ether-à-go-go-related gene (hERG) potassium channel (human, UniProt Q12809)            %        9.11
4  COc1cc(CN2CCC(CO)(CCOc3ccccc3)CC2)cc(OC)c1  human ether-à-go-go-related gene (hERG) potassium channel (human, UniProt Q12809)            %       -8.26

Consider the molecule O=C1CN(S(=O)(=O)c2cccc(C(=O)O)c2)c2ccccc2N1 and give its measured hERG current change (%, negative = inhibition) at 1uM.
11.3

How about this molecule: CC(Cc1ccccc1)NCC(=O)Nc1cc(N(C)C)nc2ccccc12.O=C(O)C(=O)O (centres unmarked)
-73.5

How about this molecule: O=C(NCc1cc(C(F)(F)F)cc(C(F)(F)F)c1)C1CC(c2ccc(C(F)(F)F)cc2)=NO1 (centres unmarked)
18.6

How about this molecule: COc1ccc(Cc2noc(CN3CCCC(C(=O)c4cccs4)C3)n2)cc1OC (centres unmarked)
9.47

How about this molecule: CCOc1ccccc1N1CC(O)=C(c2nc3ccccc3s2)C1=N
5.48

How about this molecule: CCCCC(=O)Nc1cc(N(C)C)nc2ccccc12
-30.7
